Reported pIC50 values follow for various compounds
system-name: hChoKβ FL (Homo sapiens, UniProt Q9Y259)
Construct: hChoKβ full length (FL), corresponding to aminoacids 2-395; GST (N, cleaved yes); PreScission Protease recognition site (N); made in house; host or cells: Escherichia coli BL21pLysS (DE3)
Sequence (Q9Y259 2-395): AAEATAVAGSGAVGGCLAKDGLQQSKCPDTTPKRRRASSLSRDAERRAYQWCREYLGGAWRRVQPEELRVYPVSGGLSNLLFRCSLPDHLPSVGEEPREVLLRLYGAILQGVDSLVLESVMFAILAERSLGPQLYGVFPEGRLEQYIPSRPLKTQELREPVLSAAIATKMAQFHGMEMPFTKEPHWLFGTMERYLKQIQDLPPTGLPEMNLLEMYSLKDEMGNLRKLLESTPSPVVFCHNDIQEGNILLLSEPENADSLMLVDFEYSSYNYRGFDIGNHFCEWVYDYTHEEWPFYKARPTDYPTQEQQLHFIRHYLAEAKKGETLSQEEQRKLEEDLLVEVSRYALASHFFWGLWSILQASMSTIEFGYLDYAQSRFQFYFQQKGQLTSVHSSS
assay-text: Biochemical kinase inhibition assay (Kinase-Glo luminescent) on hChoKβ FL
condition-context: recombinant hChoKβ FL 30 nM, ATP 5 μM, choline 20 μM, 60 min rt; read-out: ChoKβ IC50
pIC50: −log10 of the molar value.

CC1(C)Cc2cnc(N)nc2-c2[nH]nc(C(=O)NC3CCCCC3)c21    < 5.00
CC1(C)Cc2cnc(N)nc2-c2[nH]nc(C(=O)Nc3nc(CC(=O)N4CCC(C(N)=O)CC4)cs3)c21    < 5.00

Attention now shifts to the item below.
Qu. Find the measured pIC50 of CC1(C)Cc2cnc(N)nc2-c2[nH]nc(C(=O)Nc3nc(CN4CCC(N)CC4)cs3)c21 and report it.
Ans. < 5.00
